Please provide measured pIC50 for the entries that follow.
System: 134 cancer cell lines
ASSAY EXPLANATION: Cell viability assay (ATPlite, 72 hours), IC50 on cancer cell line panel
MEASUREMENT CONDITIONS: read-out: IC50 in cell proliferation assay, 11-18 cell line (EGFR p.L858R)
pIC50 is a log-scale quantity: -log10 of the concentration expressed in molar.

# return recorded pIC50 for input COc1ccc(CN2C3CC2CN(c2ccc(-c4cc(OCC(C)(C)O)cn5ncc(C#N)c45)cn2)C3)cn1
5.39

# return recorded pIC50 for input CN1CCN(c2ccc(C(=O)Nc3n[nH]c4ccc(Cc5cc(F)cc(F)c5)cc34)c(NC3CCOCC3)c2)CC1
5.38
